// data source = ChEMBL document CHEMBL4425132

test system: Staphylococcus aureus; test: Antimicrobial activity against methicillin-resistant Staphylococcus aureus by broth microdilution method; assay type: functional
Value type: MIC

entry_smiles=Cc1sc2nc1C(=O)N[C@@H]([C@H](O)c1ccccc1)c1nc(cs1)C(=O)N[C@@H](Cc1ccc(O)cc1)C(=O)NCC(=O)N1C[C@H](O)[C@H](C)[C@H]1c1nc(cs1)-c1nc(cs1)-c1nc(-c3nc(C(=O)NCCCCC(=O)O)cs3)ccc1-c1nc(cs1)C(=O)N[C@H]2CC(N)=O value_type=MIC result="0.5 µg/mL"
entry_smiles=Cc1sc2nc1C(=O)N[C@@H]([C@H](O)c1ccccc1)c1nc(cs1)C(=O)N[C@@H](Cc1ccc(O)cc1)C(=O)NCC(=O)N1C[C@H](O)[C@H](C)[C@H]1c1nc(cs1)-c1nc(cs1)-c1nc(-c3nc(C(N)=O)cs3)ccc1-c1nc(cs1)C(=O)N[C@H]2CC(N)=O value_type=MIC result="0.25 µg/mL"

* * *

assay: Half life in Sprague-Dawley rat at 1 mg/kg, iv by LC-MS/MS method; format: ADME, organism-based; details: in vivo
Value type: half-life

entry_smiles=Cc1sc2nc1C(=O)N[C@@H]([C@H](O)c1ccccc1)c1nc(cs1)C(=O)N[C@@H](Cc1ccc(O)cc1)C(=O)NCC(=O)N1C[C@H](O)[C@H](C)[C@H]1c1nc(cs1)-c1nc(cs1)-c1nc(-c3nc(C(=O)N[C@H]4CC[C@H](C(=O)O)CC4)cs3)ccc1-c1nc(cs1)C(=O)N[C@H]2CC(N)=O value_type=half-life result="1.8 h"

* * *

assay: Volume of distribution at steady state in Sprague-Dawley rat at 1 mg/kg, iv by LC-MS/MS method; format: ADME, organism-based; conditions: in vivo, read-out: Vdss
Value type: Vd (L/kg)

entry_smiles=Cc1sc2nc1C(=O)N[C@@H]([C@H](O)c1ccccc1)c1nc(cs1)C(=O)N[C@@H](Cc1ccc(O)cc1)C(=O)NCC(=O)N1C[C@H](O)[C@H](C)[C@H]1c1nc(cs1)-c1nc(cs1)-c1nc(-c3nc(C(=O)N[C@H]4CC[C@H](C(=O)O)CC4)cs3)ccc1-c1nc(cs1)C(=O)N[C@H]2CC(N)=O scale_unit=L/kg quantitative_result=0.032

* * *

tested on: Staphylococcus aureus; assay: Antimicrobial activity against methicillin-resistant Staphylococcus aureus by broth microdilution method; format: functional
Overview of recorded MIC for various compounds
Value type: MIC (µg/mL)

entry_smiles=Cc1sc2nc1C(=O)N[C@@H]([C@H](O)c1ccccc1)c1nc(cs1)C(=O)N[C@@H](Cc1ccc(O)cc1)C(=O)NCC(=O)N1C[C@H](O)[C@H](C)[C@H]1c1nc(cs1)-c1nc(cs1)-c1nc(-c3nc(C(=O)N[C@H]4CC[C@H](C(=O)O)CC4)cs3)ccc1-c1nc(cs1)C(=O)N[C@H]2CC(N)=O measurement_target="Staphylococcus aureus" scale_unit=µg/mL quantitative_result=0.25
entry_smiles=Cc1sc2nc1C(=O)N[C@@H]([C@H](O)c1ccccc1)c1nc(cs1)C(=O)N[C@@H](Cc1ccc(O)cc1)C(=O)NCC(=O)N1C[C@H](O)[C@H](C)[C@H]1c1nc(cs1)-c1nc(cs1)-c1nc(-c3nc(C(=O)N(CCCCC(=O)O)[C@H]4CC[C@H](C(=O)O)CC4)cs3)ccc1-c1nc(cs1)C(=O)N[C@H]2CC(N)=O measurement_target="Staphylococcus aureus" scale_unit=µg/mL quantitative_result=2

* * *

system: Clostridioides difficile; assay: Antimicrobial activity against Clostridium difficile ATCC 43255 by broth microdilution method; format: functional
Value type: MIC

entry_smiles=Cc1sc2nc1C(=O)N[C@@H]([C@H](O)c1ccccc1)c1nc(cs1)C(=O)N[C@@H](Cc1ccc(O)cc1)C(=O)NCC(=O)N1C[C@H](O)[C@H](C)[C@H]1c1nc(cs1)-c1nc(cs1)-c1nc(-c3nc(C(=O)O)cs3)ccc1-c1nc(cs1)C(=O)N[C@H]2CC(N)=O value_type=MIC result="0.125 µg/mL"
entry_smiles=Cc1sc2nc1C(=O)N[C@@H]([C@H](O)c1ccccc1)c1nc(cs1)C(=O)N[C@@H](Cc1ccc(O)cc1)C(=O)NCC(=O)N1C[C@H](O)[C@H](C)[C@H]1c1nc(cs1)-c1nc(cs1)-c1nc(-c3nc(C(=O)NCCCCC(=O)O)cs3)ccc1-c1nc(cs1)C(=O)N[C@H]2CC(N)=O value_type=MIC result="0.06 µg/mL"
entry_smiles=Cc1sc2nc1C(=O)N[C@@H]([C@H](O)c1ccccc1)c1nc(cs1)C(=O)N[C@@H](Cc1ccc(O)cc1)C(=O)NCC(=O)N1C[C@H](O)[C@H](C)[C@H]1c1nc(cs1)-c1nc(cs1)-c1nc(-c3nc(C(=O)N(CCCCC(=O)O)[C@H]4CC[C@H](C(=O)O)CC4)cs3)ccc1-c1nc(cs1)C(=O)N[C@H]2CC(N)=O value_type=MIC result="0.125 µg/mL"
entry_smiles=Cc1sc2nc1C(=O)N[C@@H]([C@H](O)c1ccccc1)c1nc(cs1)C(=O)N[C@@H](Cc1ccc(O)cc1)C(=O)NCC(=O)N1C[C@H](O)[C@H](C)[C@H]1c1nc(cs1)-c1nc(cs1)-c1nc(-c3nc(C(=O)N[C@H]4CC[C@H](C(=O)O)CC4)cs3)ccc1-c1nc(cs1)C(=O)N[C@H]2CC(N)=O value_type=MIC result="0.03 µg/mL"
entry_smiles=Cc1sc2nc1C(=O)N[C@@H]([C@H](O)c1ccccc1)c1nc(cs1)C(=O)N[C@@H](Cc1ccc(O)cc1)C(=O)NCC(=O)N1C[C@H](O)[C@H](C)[C@H]1c1nc(cs1)-c1nc(cs1)-c1nc(-c3nc(N(CCCCC(=O)O)C(=O)O[C@H]4CC[C@H](C(=O)O)CC4)cs3)ccc1-c1nc(cs1)C(=O)N[C@H]2CC(N)=O value_type=MIC result="0.06 µg/mL"
entry_smiles=Cc1sc2nc1C(=O)N[C@@H]([C@H](O)c1ccccc1)c1nc(cs1)C(=O)N[C@@H](Cc1ccc(O)cc1)C(=O)NCC(=O)N1C[C@H](O)[C@H](C)[C@H]1c1nc(cs1)-c1nc(cs1)-c1nc(-c3nc(C(N)=O)cs3)ccc1-c1nc(cs1)C(=O)N[C@H]2CC(N)=O value_type=MIC result="< 0.008 µg/mL"
entry_smiles=Cc1sc2nc1C(=O)N[C@@H]([C@H](O)c1ccccc1)c1nc(cs1)C(=O)N[C@@H](Cc1ccc(O)cc1)C(=O)NCC(=O)N1C[C@H](O)[C@H](C)[C@H]1c1nc(cs1)-c1nc(cs1)-c1nc(-c3nc(NC(=O)O[C@H]4CC[C@H](C(=O)O)CC4)cs3)ccc1-c1nc(cs1)C(=O)N[C@H]2CC(N)=O value_type=MIC result="0.03 µg/mL"
